Give measured TGI for each item. Keep answers brief.
Test system: COLO 205 colon
protocol-details: NCI tumour cell line growth inhibition, 48 h
Report the figure in µM without appending any unit label.

Param item: `COc1ccc(-c2cc(-c3ccccc3)nc(SCCCC(=O)NO)n2)cc1` ; param system: COLO 205 colon; output TGI: 6.94

Param item: `O=C1C(=O)c2c(nc3ccc(Cl)cn23)-c2ccccc21` ; param system: COLO 205 colon; output TGI: 3.54

Param item: `Cc1ccc(NC(=O)/C=C/c2ccccc2)c(C(N)=O)c1` ; param system: COLO 205 colon; output TGI: 5.93

Param item: `C/C=C/[P+](c1ccccc1)(c1ccccc1)c1ccccc1` ; param system: COLO 205 colon; output TGI: 0.285

Param item: `Cc1ccc(-c2cc(-c3ccc(C)cc3)nc(NCCNc3ccnc4cc(Cl)ccc34)n2)cc1` ; param system: COLO 205 colon; output TGI: 3.48

Param item: `O=S(=O)(Sc1ccc(Cl)cc1)c1ccc(Cl)cc1` ; param system: COLO 205 colon; output TGI: 31.8

Param item: `CC(=O)NC1=C(OS(=O)(=O)c2ccc(C)cc2)CN(C)C1=O` ; param system: COLO 205 colon; output TGI: 25.3

Param item: Cc1cc(C)c(C2=NOC(c3ccccc3)(c3cc(=O)n(-c4ccccc4)s3)O2)c(C)c1 (configuration not stated) ; param system: COLO 205 colon; output TGI: 63.4

Param item: O=C(C1CCCCC1)[C@@H]1[C@]2(C(=O)NC3CCCCC32)[C@@H]2CCCN2[C@@]12C(=O)NC1CCC(Cl)CC12 (some centres not stated) ; param system: COLO 205 colon; output TGI: 323
